Target: T1, 4H3102-AA
T1 chain: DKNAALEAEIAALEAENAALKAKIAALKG
Assay: two-hybrid library CCmax;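 note: natural log of median RNA to DNA barcode read ratio; higher means stronger binding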
Details: mean of both orientations
Returns one of True or False; True when interaction score is >= -1.

INSERT INTO assay_data (binder, answer_label) VALUES
  ('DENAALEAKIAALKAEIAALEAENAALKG [4H1348-AA]', 'False'),
  ('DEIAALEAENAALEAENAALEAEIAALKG [4H146-AA]', 'False'),
  ('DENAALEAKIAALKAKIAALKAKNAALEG [4H1391-AA]', 'False');

Could you please find out whether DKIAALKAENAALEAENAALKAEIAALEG [4H2713-AA] has interaction score that meets -1 or exceeds it?
True

Could you please find out whether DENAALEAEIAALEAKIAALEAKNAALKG [4H1064-AA] has interaction score that meets -1 or exceeds it?
False
